These measurements were taken from PubChem BioAssay AID1963846.

Test system: 454973-116-R2-J3-PDC complex spheroid viability
Test: Anticancer human tumor 454973-116-R2-J3-PDC patient-derived pancreatic carcinoma cell line growth inhibition [POLQ]
Conditions: second compound 1 µM; first compound 0.316 µM; hits give low values

{"compound": "O=C(c1cc(Cc2n[nH]c(=O)c3ccccc23)ccc1F)N1CCN(C(=O)C2CC2)CC1 + Nc1ccc(C#CCN(C(=O)Cc2ncc(C(F)(F)F)cc2C(F)(F)F)c2ccc(F)cc2)nn1", "target desc": "454973-116-R2-J3-PDC complex spheroid viability", "viability, T/C (%)": 114}
{"compound": "CC(C)n1c(=O)n(C)c2cnc3cc(F)c(-c4ccc(OCCCN5CCCCC5)nc4)cc3c21 + Cc1cccc(N(C)C(=O)C2C(O)CCN2c2nc(C)cc(C(F)(F)F)c2C#N)c1", "target desc": "454973-116-R2-J3-PDC complex spheroid viability", "viability, T/C (%)": 110}
{"compound": "CC1COCCN1c1cc(C2(O)CC3CCC(C2)O3)c2cnn(-c3ccn[nH]3)c2n1 (stereo unspecified) + COC1C(OC(N)=O)C(O)C(Oc2ccc3c(O)c(NC(=O)c4ccc(O)c(CC=C(C)C)c4)c(=O)oc3c2C)OC1(C)C", "target desc": "454973-116-R2-J3-PDC complex spheroid viability", "viability, T/C (%)": 37.8}
{"compound": "O=C(Nc1ccc(O)c(NS(=O)(=O)c2ccc(F)cc2)c1)c1ccc(-c2ccccc2)cc1 + Cc1cccc(N(C)C(=O)C2C(O)CCN2c2nc(C)cc(C(F)(F)F)c2C#N)c1", "target desc": "454973-116-R2-J3-PDC complex spheroid viability", "viability, T/C (%)": 100}
{"compound": "Nc1ccn(C2OC(CO)C(O)C2(F)F)c(=O)n1 (stereo unspecified) + Cc1cccc(N(C)C(=O)C2C(O)CCN2c2nc(C)cc(C(F)(F)F)c2C#N)c1", "target desc": "454973-116-R2-J3-PDC complex spheroid viability", "viability, T/C (%)": 13.9}
{"compound": "CCc1cc2c(N3CCc4c(cc(Cn5ccnc5)cc4-c4cn(C)nc4C(F)(F)F)C3=O)cc(C)nc2c(OC)n1 + Nc1ccc(C#CCN(C(=O)Cc2ncc(C(F)(F)F)cc2C(F)(F)F)c2ccc(F)cc2)nn1", "target desc": "454973-116-R2-J3-PDC complex spheroid viability", "viability, T/C (%)": 81.6}
{"compound": "CC1COCCN1c1cc(C2(S(C)(=N)=O)CC2)nc(-c2ccnc3[nH]ccc23)n1 (stereo unspecified) + Cc1cccc(N(C)C(=O)C2C(O)CCN2c2nc(C)cc(C(F)(F)F)c2C#N)c1", "target desc": "454973-116-R2-J3-PDC complex spheroid viability", "viability, T/C (%)": 114}
{"compound": "Nc1ccn(C2OC(CO)C(O)C2(F)F)c(=O)n1 (stereo unspecified) + COC1C(OC(N)=O)C(O)C(Oc2ccc3c(O)c(NC(=O)c4ccc(O)c(CC=C(C)C)c4)c(=O)oc3c2C)OC1(C)C", "target desc": "454973-116-R2-J3-PDC complex spheroid viability", "viability, T/C (%)": 13.1}
{"compound": "O=C(c1cc(Cc2n[nH]c(=O)c3ccccc23)ccc1F)N1CCN(C(=O)C2CC2)CC1 + Cc1cccc(N(C)C(=O)C2C(O)CCN2c2nc(C)cc(C(F)(F)F)c2C#N)c1", "target desc": "454973-116-R2-J3-PDC complex spheroid viability", "viability, T/C (%)": 109}
{"compound": "O=c1[nH]cc(F)c(=O)[nH]1 + Cc1cccc(N(C)C(=O)C2C(O)CCN2c2nc(C)cc(C(F)(F)F)c2C#N)c1", "target desc": "454973-116-R2-J3-PDC complex spheroid viability", "viability, T/C (%)": 112}
{"compound": "CCCS(=O)(=O)Nc1ccc(F)c(C(=O)c2c[nH]c3ncc(-c4ccc(Cl)cc4)cc23)c1F + COC1C(OC(N)=O)C(O)C(Oc2ccc3c(O)c(NC(=O)c4ccc(O)c(CC=C(C)C)c4)c(=O)oc3c2C)OC1(C)C", "target desc": "454973-116-R2-J3-PDC complex spheroid viability", "viability, T/C (%)": 109}

---

Test system: 454973-116-R2-J3-PDC complex spheroid viability
Assay: Anticancer human tumor 454973-116-R2-J3-PDC cell line growth inhibition [POLQ]; active means viability on the fitted dose curve at most 10% of control; inactive means the rest;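 also: spheroids exposed to drugs for seven days before measurement; percent viability relative to DMSO vehicle control wells taken as 100%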
Conditions: second compound 0.1 µM; first compound 3.16 µM
Experimental: Multicellular complex tumor spheroid response to Polymerase (POL) inhibitors (novobiocin, ART-558, RP6685) in combination with a variety of drugs and investigational agents in selected tumor cell lines The POL inhibitors (novobiocin, ART-558, and RP6685) were evaluated both individually and in combination with standard of care and investigational anticancer small molecules within a complex spheroid model of solid tumors. . […]
Outcome codes: active, inactive

{"compound": "CCc1cc2c(N3CCc4c(cc(Cn5ccnc5)cc4-c4cn(C)nc4C(F)(F)F)C3=O)cc(C)nc2c(OC)n1 + Cc1cccc(N(C)C(=O)C2C(O)CCN2c2nc(C)cc(C(F)(F)F)c2C#N)c1", "target desc": "454973-116-R2-J3-PDC complex spheroid viability", "label value": "inactive"}
{"compound": "Nc1ccn(C2OC(CO)C(O)C2(F)F)c(=O)n1 (stereo not given) + Nc1ccc(C#CCN(C(=O)Cc2ncc(C(F)(F)F)cc2C(F)(F)F)c2ccc(F)cc2)nn1", "target desc": "454973-116-R2-J3-PDC complex spheroid viability", "label value": "active"}
{"compound": "CCc1cc2c(N3CCc4c(cc(Cn5ccnc5)cc4-c4cn(C)nc4C(F)(F)F)C3=O)cc(C)nc2c(OC)n1 + COC1C(OC(N)=O)C(O)C(Oc2ccc3c(O)c(NC(=O)c4ccc(O)c(CC=C(C)C)c4)c(=O)oc3c2C)OC1(C)C", "target desc": "454973-116-R2-J3-PDC complex spheroid viability", "label value": "inactive"}
{"compound": "CC1COCCN1c1cc(C2(O)CC3CCC(C2)O3)c2cnn(-c3ccn[nH]3)c2n1 (stereo not given) + COC1C(OC(N)=O)C(O)C(Oc2ccc3c(O)c(NC(=O)c4ccc(O)c(CC=C(C)C)c4)c(=O)oc3c2C)OC1(C)C", "target desc": "454973-116-R2-J3-PDC complex spheroid viability", "label value": "inactive"}
{"compound": "CCc1cc2c(N3CCc4c(cc(Cn5ccnc5)cc4-c4cn(C)nc4C(F)(F)F)C3=O)cc(C)nc2c(OC)n1 + Nc1ccc(C#CCN(C(=O)Cc2ncc(C(F)(F)F)cc2C(F)(F)F)c2ccc(F)cc2)nn1", "target desc": "454973-116-R2-J3-PDC complex spheroid viability", "label value": "inactive"}

---

Tested on: 454973-116-R2-J3-PDC complex spheroid viability
Assay: Anticancer human tumor 454973-116-R2-J3-PDC cell line growth inhibition [POLQ];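 also: spheroids exposed to drugs for seven days before measurement; percent viability relative to DMSO vehicle control wells taken as 100%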
Settings: second compound 0.0316 µM; first compound 1 µM; hits give low values

{"compound": "COc1cc(C2c3cc4c(cc3C(OC3OC5COC(C)OC5C(O)C3O)C3COC(=O)C23)OCO4)cc(OC)c1O (stereo not drawn) + Cc1cccc(N(C)C(=O)C2C(O)CCN2c2nc(C)cc(C(F)(F)F)c2C#N)c1", "target desc": "454973-116-R2-J3-PDC complex spheroid viability", "viability, T/C, %": 66.1}
{"compound": "COc1cccc(OCCCN)c1-c1cc(Nc2cnc(C#N)cn2)n[nH]1 + Cc1cccc(N(C)C(=O)C2C(O)CCN2c2nc(C)cc(C(F)(F)F)c2C#N)c1", "target desc": "454973-116-R2-J3-PDC complex spheroid viability", "viability, T/C, %": 4.08}
{"compound": "CC1COCCN1c1cc(-c2ccnn2C)c2ccnc(-c3ccn[nH]3)c2n1 (stereo not drawn) + Cc1cccc(N(C)C(=O)C2C(O)CCN2c2nc(C)cc(C(F)(F)F)c2C#N)c1", "target desc": "454973-116-R2-J3-PDC complex spheroid viability", "viability, T/C, %": 21.7}
{"compound": "CCc1cc2c(N3CCc4c(cc(Cn5ccnc5)cc4-c4cn(C)nc4C(F)(F)F)C3=O)cc(C)nc2c(OC)n1 + Cc1cccc(N(C)C(=O)C2C(O)CCN2c2nc(C)cc(C(F)(F)F)c2C#N)c1", "target desc": "454973-116-R2-J3-PDC complex spheroid viability", "viability, T/C, %": 75.5}
{"compound": "O=C(c1cc(Cc2n[nH]c(=O)c3ccccc23)ccc1F)N1CCN(C(=O)C2CC2)CC1 + COC1C(OC(N)=O)C(O)C(Oc2ccc3c(O)c(NC(=O)c4ccc(O)c(CC=C(C)C)c4)c(=O)oc3c2C)OC1(C)C", "target desc": "454973-116-R2-J3-PDC complex spheroid viability", "viability, T/C, %": 116}
{"compound": "CCc1cc2c(N3CCc4c(cc(Cn5ccnc5)cc4-c4cn(C)nc4C(F)(F)F)C3=O)ccnc2c(OC)n1 + COC1C(OC(N)=O)C(O)C(Oc2ccc3c(O)c(NC(=O)c4ccc(O)c(CC=C(C)C)c4)c(=O)oc3c2C)OC1(C)C", "target desc": "454973-116-R2-J3-PDC complex spheroid viability", "viability, T/C, %": 86.4}
{"compound": "O=c1[nH]cc(F)c(=O)[nH]1 + Cc1cccc(N(C)C(=O)C2C(O)CCN2c2nc(C)cc(C(F)(F)F)c2C#N)c1", "target desc": "454973-116-R2-J3-PDC complex spheroid viability", "viability, T/C, %": 104}
{"compound": "C=CC(=O)N1CCN(c2nc(=O)n(-c3c(C)ccnc3C(C)C)c3nc(-c4c(O)cccc4F)c(F)cc23)C(C)C1 (stereo not drawn) + Cc1cccc(N(C)C(=O)C2C(O)CCN2c2nc(C)cc(C(F)(F)F)c2C#N)c1", "target desc": "454973-116-R2-J3-PDC complex spheroid viability", "viability, T/C, %": 115}
{"compound": "CCCS(=O)(=O)Nc1ccc(F)c(C(=O)c2c[nH]c3ncc(-c4ccc(Cl)cc4)cc23)c1F + Cc1cccc(N(C)C(=O)C2C(O)CCN2c2nc(C)cc(C(F)(F)F)c2C#N)c1", "target desc": "454973-116-R2-J3-PDC complex spheroid viability", "viability, T/C, %": 118}
{"compound": "COc1ccc([C@@H](O)c2cc(-c3ncnc4cc(N5CCOCC5)ccc34)c(F)cc2Cl)nn1 + Cc1cccc(N(C)C(=O)C2C(O)CCN2c2nc(C)cc(C(F)(F)F)c2C#N)c1", "target desc": "454973-116-R2-J3-PDC complex spheroid viability", "viability, T/C, %": 92.5}
{"compound": "CNCc1ccc(-c2[nH]c3cc(F)cc4c3c2CCNC4=O)cc1 + Nc1ccc(C#CCN(C(=O)Cc2ncc(C(F)(F)F)cc2C(F)(F)F)c2ccc(F)cc2)nn1", "target desc": "454973-116-R2-J3-PDC complex spheroid viability", "viability, T/C, %": 94.5}
{"compound": "CC1COCCN1c1cc(C2(S(C)(=N)=O)CC2)nc(-c2ccnc3[nH]ccc23)n1 (stereo not drawn) + COC1C(OC(N)=O)C(O)C(Oc2ccc3c(O)c(NC(=O)c4ccc(O)c(CC=C(C)C)c4)c(=O)oc3c2C)OC1(C)C", "target desc": "454973-116-R2-J3-PDC complex spheroid viability", "viability, T/C, %": 102}
{"compound": "CC1COCCN1c1cc(C2(O)CC3CCC(C2)O3)c2cnn(-c3ccn[nH]3)c2n1 (stereo not drawn) + Nc1ccc(C#CCN(C(=O)Cc2ncc(C(F)(F)F)cc2C(F)(F)F)c2ccc(F)cc2)nn1", "target desc": "454973-116-R2-J3-PDC complex spheroid viability", "viability, T/C, %": 12.5}
{"compound": "CC(C)n1c(=O)n(C)c2cnc3cc(F)c(-c4ccc(OCCCN5CCCCC5)nc4)cc3c21 + COC1C(OC(N)=O)C(O)C(Oc2ccc3c(O)c(NC(=O)c4ccc(O)c(CC=C(C)C)c4)c(=O)oc3c2C)OC1(C)C", "target desc": "454973-116-R2-J3-PDC complex spheroid viability", "viability, T/C, %": 110}
{"compound": "COc1cc(C2c3cc4c(cc3C(OC3OC5COC(C)OC5C(O)C3O)C3COC(=O)C23)OCO4)cc(OC)c1O (stereo not drawn) + Nc1ccc(C#CCN(C(=O)Cc2ncc(C(F)(F)F)cc2C(F)(F)F)c2ccc(F)cc2)nn1", "target desc": "454973-116-R2-J3-PDC complex spheroid viability", "viability, T/C, %": 50.9}
{"compound": "COc1cc2cc(C(=O)CCC(=O)O)sc2cc1OC + Nc1ccc(C#CCN(C(=O)Cc2ncc(C(F)(F)F)cc2C(F)(F)F)c2ccc(F)cc2)nn1", "target desc": "454973-116-R2-J3-PDC complex spheroid viability", "viability, T/C, %": 101}
{"compound": "COc1cc(C2c3cc4c(cc3C(OC3OC5COC(C)OC5C(O)C3O)C3COC(=O)C23)OCO4)cc(OC)c1O (stereo not drawn) + COC1C(OC(N)=O)C(O)C(Oc2ccc3c(O)c(NC(=O)c4ccc(O)c(CC=C(C)C)c4)c(=O)oc3c2C)OC1(C)C", "target desc": "454973-116-R2-J3-PDC complex spheroid viability", "viability, T/C, %": 66.8}
{"compound": "CCc1cc2c(N3CCc4c(cc(Cn5ccnc5)cc4-c4cn(C)nc4C(F)(F)F)C3=O)cc(C)nc2c(OC)n1 + Nc1ccc(C#CCN(C(=O)Cc2ncc(C(F)(F)F)cc2C(F)(F)F)c2ccc(F)cc2)nn1", "target desc": "454973-116-R2-J3-PDC complex spheroid viability", "viability, T/C, %": 72.2}
